Listed here: items and their measured koff.
# system name: SARS-CoV-2 spike ectodomain (S-ecto), Wuhan-hu-1 strain, 2P (SARS-CoV-2, Wuhan-hu-1, UniProt P0DTC2, 2P mutation at residues 986 and 987 | 2P mutation at residues 986 and 987, biotin (NHS-sulfo-LC-Biotin, EZ-link biotinylation kit))
# assay: BLI
# condition label: both partners purified
endpoint: koff (s⁻¹)

* humanized SW186 H4L1 (antibody, V domains shown) VH: QVQLVQSGAEVKKPGSSVKVSCKASGVAFSSYWMNWVKQAPGQGLEWIGQIYPGDGDTNYNGKFKGKATITADKSTSTAYMELSSLRSEDTAVYFCARGFIATVEETMDYWGQGTLVTVSS VL: DIQMTQSPSSLSASVGDRVTITCRASQDISNYLNWYQQKPGKAPKLLIYYTSRLHSGVPSRFSGSGSGTDFTLTISSLQPEDFATYYCQQSHTLPWTFGGGTKLEIK | 0.00077
* humanized SW186 H2L3 (antibody, V domains shown) VH: QVQLVQSGAEVKKPGSSVKVSCKASGVAFSSYWMNWVRQAPGQGLEWIGQIYPGDGDTNYNGKFKGRVTITADKSTSTAYMELSSLRSEDTAVYFCARGFIATVEETMDYWGQGTLVTVSS VL: DIQMTQSPSSLSASVGDRVTITCRASQDISNYLNWYQQKPGKAPKLLIYYTSRLHSGVPSRFSGSGSGTDYTLTISSLQPEDFATYFCQQSHTLPWTFGGGTKLEIK | 0.000713
* humanized SW186 H1L4 (antibody, V domains shown) VH: QVQLVQSGAEVKKPGSSVKVSCKASGVAFSSYWMNWVRQAPGQGLEWMGQIYPGDGDTNYNGKFKGRVTITADKSTSTAYMELSSLRSEDTAVYYCARGFIATVEETMDYWGQGTLVTVSS VL: DIQMTQSPSSLSASVGDRVTITCRASQDISNYLNWYQQKPGKTVKLLIYYTSRLHSGVPSRFSGSGSGTDYTLTISSLQPEDFATYFCQQSHTLPWTFGGGTKLEIK | 0.000519
